The origin of these recorded values is patent US4314028A.

- Tested on: Proteus mirabilis A9554
- assay_method_text: MIC, two-fold agar dilution method
- Format: cell-based
- experimental_context: nutrient agar
compounds and their reported minimum inhibitory concentration (MIC)
outcome_measure: minimum inhibitory concentration (MIC)

Cc1c(N)nc(C(CC(N)=O)NCC(N)C(N)=O)nc1C(=O)NC(C(=O)NC(C)C(O)CC(=O)NC(C(=O)NC(OC1OC(C)C(N)C(O)C1O)C(O)c1nc(-c2nc(C(=O)NCCCN3CCCCC3C)cs2)cs1)C(C)O)C(OC1OC(CO)C(O)C(O)C1OC1OC(CO)C(O)C(OC(N)=O)C1O)c1c[nH]cn1 (stereo not shown) [Tallysomycin S13b] ... 12.5
Cc1c(N)nc(C(CC(N)=O)NCC(N)C(N)=O)nc1C(=O)NC(C(=O)NC(C)C(O)CC(=O)NC(C(=O)NC(OC1OC(C)C(N)C(O)C1O)C(O)c1nc(-c2nc(C(=O)NCCC[S+](C)C)cs2)cs1)C(C)O)C(OC1OC(CO)C(O)C(O)C1OC1OC(CO)C(O)C(OC(N)=O)C1O)c1cnc[nH]1.Cl.Cl.Cl.[Cl-] (stereo not shown) ... 1.6
Cc1c(N)nc(C(CC(N)=O)NCC(N)C(N)=O)nc1C(=O)NC(C(=O)NC(C)C(O)CC(=O)NC(C(=O)NC(OC1OC(C)C(N)C(O)C1O)C(O)c1nc(-c2nc(C(=O)NCCCNC(C)c3ccccc3)cs2)cs1)C(C)O)C(OC1OC(CO)C(O)C(O)C1OC1OC(CO)C(O)C(OC(N)=O)C1O)c1c[nH]cn1 (stereo not shown) [Tallysomycin S14b] ... 25
CNCCCNC(=O)c1csc(-c2csc(C(O)C(NC(=O)C(NC(=O)CC(O)C(C)NC(=O)C(NC(=O)c3nc(C(CC(N)=O)NCC(N)C(N)=O)nc(N)c3C)C(OC3OC(CO)C(O)C(O)C3OC3OC(CO)C(O)C(OC(N)=O)C3O)c3c[nH]cn3)C(C)O)OC3OC(C)C(N)C(O)C3O)n2)n1 (stereo not shown) [Tallysomycin S11b] ... 1.6
CNCCCNC(=O)CC(N)CCCNC(=O)c1csc(-c2csc(C(O)C(NC(=O)C(NC(=O)CC(O)C(C)NC(=O)C(NC(=O)c3nc(C(CC(N)=O)NCC(N)C(N)=O)nc(N)c3C)C(OC3OC(CO)C(O)C(O)C3OC3OC(CO)C(O)C(OC(N)=O)C3O)c3c[nH]cn3)C(C)O)OC3OC(C)C(N)C(O)C3O)n2)n1 (stereo not shown) [Tallysomycin S11a] ... 0.2
Cc1c(N)nc(C(CC(N)=O)NCC(N)C(N)=O)nc1C(=O)NC(C(=O)NC(C)C(O)CC(=O)NC(C(=O)NC(OC1OC(C)C(N)C(O)C1O)C(O)c1nc(-c2nc(C(=O)NCCNCCO)cs2)cs1)C(C)O)C(OC1OC(CO)C(O)C(O)C1OC1OC(CO)C(O)C(OC(N)=O)C1O)c1c[nH]cn1 (stereo not shown) ... 0.8
Cc1c(N)nc(C(CC(N)=O)NCC(N)C(N)=O)nc1C(=O)NC(C(=O)NC(C)C(O)CC(=O)NC(C(=O)NC(OC1OC(C)C(N)C(O)C1O)C(O)c1nc(-c2nc(C(=O)NCCCC(N)CC(=O)NCCCN(CCO)CCO)cs2)cs1)C(C)O)C(OC1OC(CO)C(O)C(O)C1OC1OC(CO)C(O)C(OC(N)=O)C1O)c1c[nH]cn1 (stereo not shown) ... 0.4
